# Tested on: SW-620
# testDetails: NCI tumour cell line growth inhibition, 48 h
Active and inactive are the calls of the source. No stated cut-off is given here; in the data, active = GI50 up to about 1.1 µM and inactive = higher.
Readings of GI50 for the listed molecules
endpointName: GI50

• Cc1ccc2sc3cc(=O)cc(C)c-3nc2c1 = > 100 µM (inactive)
• N#CC1C(=O)NC(=O)C1=O (stereo not given) = > 100 µM (inactive)
• NC(=O)NC(=O)CCC(NS(=O)(=O)c1ccccc1)C(=O)NC(N)=O (stereo not given) = > 100 µM (inactive)
• Cc1ccc(N2C3=C(CC4=C2CC(C)(C)CC4=O)C(=O)CC(C)(C)C3)cc1 = > 100 µM (inactive)
• O=C(NCCNCCNCCNC(=O)c1cc(-c2ccccc2)nc2ccccc12)c1cc(-c2ccccc2)nc2ccccc12 = 1.83 µM (inactive)

* * *

# System: 786-0
# testDetails: NCI tumour cell line growth inhibition, 48 h
Active and inactive are the calls of the source. Cut-off read from the data, not from the text of the source: active = GI50 up to about 1.1 µM and inactive = higher.
Readings of GI50 for the listed compounds
endpointName: GI50

• Oc1ccc2c(c1)OCC1c3ccccc3OC21 (stereo not drawn) = > 100 µM (inactive)
• O/N=C/c1ccc(O)c(O)c1 = > 100 µM (inactive)
• COC(=O)c1cnn2c1n[n+]([O-])c1ccccc12 = > 100 µM (inactive)

* * *

# Tested on: SK-MEL-28
# testDetails: NCI tumour cell line growth inhibition, 48 h
Active and inactive are the calls of the source. Cut-off read from the data, not from the text of the source: active = GI50 up to about 1.1 µM and inactive = higher. Where a SMILES comes first, the peptide text is derived from it. The star is where a group is joined. Cbz = O=C(OCc1ccccc1)*; Boc = CC(C)(C)OC(=O)*; OSu = O=C1CCC(=O)N1O*; Bn = c1ccc(C*)cc1
endpointName: GI50

- N#CC1C(=O)NC(=O)C1=O (centres undefined): > 100 µM (inactive)
- CC(C)(C)OC(=O)NC(Cc1ccc(OCc2ccccc2)cc1)C(=O)NC(CCCCNC(=O)OCc1ccccc1)C(=O)ON1C(=O)CCC1=O (centres undefined) (Boc-Tyr(Bn)-Lys(Cbz)-OSu; configuration not given here): 15.8 µM (inactive)
- C=CSCCC(N)C(=O)O (centres undefined): > 100 µM (inactive)
- CNC(=O)CCCNC(=O)CCCC(=O)N(C)C: > 100 µM (inactive)
- COc1ccc(C2=CC(c3ccc4c(c3)OCO4)c3c(c4ccccc4oc3=O)O2)cc1OC (centres undefined): > 55.2 µM (inactive)
- COc1cccc(C2c3cc4c(cc3OC(N3CCCC3)C2C)OCO4)c1O (centres undefined): 6.5 µM (inactive)
- O=[N+]([O-])c1ccc2nc3n(c2c1)C(c1c(F)cccc1F)SC3 (centres undefined): > 100 µM (inactive)
- CN1CN(c2ccccc2)C2(CCN(CC(C)(c3ccc(F)cc3)C3OCCCO3)CC2)C1=O (centres undefined): 16.8 µM (inactive)
- O=c1c2cc([N+](=O)[O-])ccc2oc2nc3n(c(=O)c12)CCCS3: > 100 µM (inactive)

* * *

# Test system: OVCAR-5
# testDetails: NCI tumour cell line growth inhibition, 48 h
The source made the active and inactive calls. Cut-off read from the data, not from the text of the source: active = GI50 up to about 1.1 µM and inactive = higher.
Possible outcomes: active, inactive

* Nc1ccc2c(c1)Nc1c3ccccc3nc3cccc-2c13 | inactive
* CC(C)(Cl)C(Cl)CC/C(CBr)=C(\Cl)CCl (stereo not drawn) | inactive
* Cc1ccc(-c2ccc3c(c2)Sc2ccccc2O3)n1C | active
* Cc1nn2c(C(=O)N/N=C/c3ccccc3O)c(C)nc2s1 | inactive
* CNC(=O)CCCNC(=O)CCCC(=O)N(C)C | inactive
* Cc1nn(-c2ccccc2)c2nc3c(c(C)nn3-c3ccccc3)c(-c3ccc(C(F)(F)F)cc3)c12 | inactive
* O=C1OCOC2(CCCC2)C1c1ccccc1 (stereo not drawn) | inactive
* CCOP(=O)(CC1CC(O)(CNc2cc(Cl)nc(N)n2)C1)OCC (stereo not drawn) | inactive
